test system: HTT mRNA; assay: Splicing RT-qPCR assay, canonical (CJ) and alternative (AJ) junction mRNA, K562 cells; format: cell-based; details: Homo sapiens, K562.3 cells, 24 hours, read-out: HTT AJ (AC50, increase in AJ mRNA)
Hi there, I'd appreciate the recorded AC50 for every entry that follows.

CN[C@H]1CCN(c2ccc(C(=O)Nc3cc(F)c4nc(C)cn4c3)c3nnn(C)c23)C1 > 10 µM
CCNC1CCN(c2ccc(C(=O)Nc3cc(F)c4nc(CO)cn4c3)c3nn(C)cc23)CC1 > 10 µM
Cc1cn2cc(NC(=O)c3ccc(N4CC[C@H](NCCO)C4)c4cn(C)nc34)cc(F)c2n1 1 to 10 µM

## Input What does the record list as AC50 for Cc1cn2cc(NC(=O)c3ccc(N4CCC(NC5CC5)CC4)n4cc(C)nc34)cc(F)c2n1 ?
## Output 0.1 to 1 µM
